Below: a set of entries, each annotated with reported Efficacy.
Molecular target: Human ALDH3A1 (Homo sapiens, UniProt P30838)
Sequence (P30838 whole entry): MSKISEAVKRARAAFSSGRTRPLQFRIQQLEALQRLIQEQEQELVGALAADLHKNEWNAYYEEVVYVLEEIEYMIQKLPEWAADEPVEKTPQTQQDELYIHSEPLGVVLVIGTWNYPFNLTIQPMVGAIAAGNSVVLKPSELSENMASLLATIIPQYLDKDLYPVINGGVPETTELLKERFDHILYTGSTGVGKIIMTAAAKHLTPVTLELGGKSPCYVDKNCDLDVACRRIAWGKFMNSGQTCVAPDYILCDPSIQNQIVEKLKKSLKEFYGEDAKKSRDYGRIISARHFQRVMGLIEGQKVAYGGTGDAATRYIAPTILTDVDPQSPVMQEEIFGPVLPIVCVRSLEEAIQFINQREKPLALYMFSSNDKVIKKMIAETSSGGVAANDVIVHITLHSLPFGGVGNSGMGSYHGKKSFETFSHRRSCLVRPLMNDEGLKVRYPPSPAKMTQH
Assay: ALDH3A1 biochemical assay (benzaldehyde/NADP+, diaphorase-resazurin readout, 1,536-well)
Conditions: Table S4, biochemical
API doc: respond with a numeric literal and nothing else, no unit.

Example results:
# smiles-record, target-or-test-system, Efficacy
data = [
    ("Cc1cccc(CNC(=O)c2csc(N3CCN(c4cc(Cl)c(Cl)c(Cl)c4)CC3)n2)c1", "Human ALDH3A1 (Homo sapiens, UniProt P30838)", -72.19),
    ("Cc1cccc(CNC(=O)c2csc(N3CCN(c4ccc(OC(F)(F)F)cc4)CC3)n2)c1", "Human ALDH3A1 (Homo sapiens, UniProt P30838)", -96.17),
    ("Cc1cccc(CNC(=O)c2csc(N3CCN(c4ccc(C5(C#N)CCCC5)cc4)CC3)n2)c1", "Human ALDH3A1 (Homo sapiens, UniProt P30838)", -62.83),
    ("COc1ccc(N2CCN(c3nc(C(=O)NCc4cccc(C)c4)cs3)CC2)cc1O", "Human ALDH3A1 (Homo sapiens, UniProt P30838)", -71.12),
    ("COc1cc(N2CCN(c3nc(C(=O)NCc4cccc(C)c4)cs3)CC2)ccc1F", "Human ALDH3A1 (Homo sapiens, UniProt P30838)", -71.38),
    ("Cc1cccc(CNC(=O)c2csc(N3CCN(c4cccc([S+](C)(=O)[O-])c4)CC3)n2)c1", "Human ALDH3A1 (Homo sapiens, UniProt P30838)", -72.64),
]

Give its Efficacy value. Item: Cc1cccc(CNC(=O)c2csc(N3CCN(c4ccccc4Br)CC3)n2)c1 -99.96

Same question, Cc1cccc(CNC(=O)c2csc(N3CCN(c4cccc([S+](=O)([O-])C(F)(F)F)c4)CC3)n2)c1 this time -54.32

###

Target: UniProtKB P30838
Experiment: ALDH3A1 biochemical assay (benzaldehyde/NADP+, diaphorase-resazurin readout, 1,536-well)
Details: Table S1, primary screen
Entries are sorted into classes by Efficacy as follows: low range = under -60, mid range = from -60 up to -40, high range = -40 and over

Sample answers from the record:
# compound, target-or-test-system, answer-label
measured = [
    ("CC(O)c1ccc(CCNC(=O)C(=O)Nc2cc3c4c(c2)CC(=O)N4CCC3)s1 (stereo not shown)", "UniProtKB P30838", "high range"),
    ("COc1cccc(CN2CC(C(=O)NCc3cc4ccccc4[nH]3)CCC2=O)c1 (stereo not shown)", "UniProtKB P30838", "mid range"),
    ("Cc1ccc2nc(CN3CCC(c4cccc(C#N)c4)CC3)cc(O)c2c1", "UniProtKB P30838", "high range"),
    ("Cc1cc(=O)[nH]c(N2CCC(NC(=O)NCc3ccco3)CC2)n1", "UniProtKB P30838", "mid range"),
]

Kindly identify the class of COc1cccc(NC(=O)O[C@@H]2CO[C@H]3[C@@H]2OC[C@@H]3Nc2nccc(-c3ccccc3)n2)c1 . high range

Query CCCNC(=O)N1CC(Oc2ccc(-c3nc(C)no3)cc2)C1 next mid range

Another compound to look at: C[S+](=O)([O-])c1ccc(N2CCN(CC3(O)CNCCOC3)CC2)c(F)c1 (stereo not shown) low range

Similarly, Cc1cc(OC2CN(C(=O)c3cc(-c4ccc(F)cc4)n[nH]3)C2)n2ncnc2n1 ? low range

For COCC(=O)Nc1ncncc1-c1noc([C@@H]2CCCN2Cc2cc(OC)c(OC)c(OC)c2)n1 then? low range

// query: COCCNC(=O)c1ccc2c(c1)N(C)C(CC(=O)NCC(C)C)CO2 (stereo not shown) high range

What would you report for CC1(COCC2CC2)COc2ccc(C(=O)Nc3cccc([S+](C)(=O)[O-])c3)cc2N1 (stereo not shown) ? mid range

Try this compound too: C=CCOc1c(OC)ccc2c1CN(Cc1ccccc1)C(=O)CCN2CC(O)COc1ccc(OC)cc1 (stereo not shown) high range

###

Molecular target: UniProt P30838
Test: ALDH3A1 biochemical assay (benzaldehyde/NADP+, diaphorase-resazurin readout, 1,536-well)
Rule: AC50 below 0.9 µM gives YES. Equal to or above 0.9 µM gives NO.

// known answers, use as guide
# compound, target-or-test-system, answer-label
data = [
    ("COc1cc(N2CCN(c3nc(C(=O)NCc4cccc(C)c4)cs3)CC2)cc(OC)c1OC [NCGC01211386-01]", "UniProt P30838", "NO"),
    ("CCn1nc(C)c(CNC(=O)c2cc(COc3ccc4ncccc4c3)on2)c1C [NCGC00426725-01]", "UniProt P30838", "NO"),
    ("Cc1ccc2[nH]c(CO[C@H]3CN(Cc4ccc(F)c(F)c4)C[C@H]3F)nc2c1 [NCGC00392991-01]", "UniProt P30838", "NO"),
    ("O=C(NCc1cccs1)c1csc(N2CCN(c3ccc(F)cc3)CC2)n1 [NCGC00430736-01]", "UniProt P30838", "NO"),
    ("Cc1nc(-c2cccc(CNC(=O)c3csc(N4CCN(c5cccc(C(F)(F)F)c5)CC4)n3)c2)cs1 [Compound 14]", "UniProt P30838", "YES"),
    ("COC(=O)c1ccc2nc(CO[C@H]3CN(Cc4ccc5ccccc5n4)C[C@H]3F)[nH]c2c1 [NCGC00391159-01]", "UniProt P30838", "YES"),
    ("CNC(=O)c1cccc(-c2cnc3[nH]cc(CC(=O)Nc4ccccc4C)c3c2)c1 [NCGC00412345-01]", "UniProt P30838", "NO"),
    ("Cc1cccc(CNC(=O)c2csc(N3CCN(c4cncc(Br)c4)CC3)n2)c1 [NCGC01212814-01]", "UniProt P30838", "NO"),
    ("O=C(NCc1cccc(Oc2ccccc2)c1)c1csc(N2CCN(c3cccc(C(F)(F)F)c3)CC2)n1 [NCGC01407978-01]", "UniProt P30838", "YES"),
    ("Cc1cccc(CNC(=O)c2csc(N3CCN(c4ccc(C(F)(F)F)cn4)CC3)n2)c1 [NCGC01210237-01]", "UniProt P30838", "YES"),
]

Strictly below 0.9 µM in AC50? Cc1nn(Cc2ccccc2)c(C)c1[C@@H]1C=C[C@@H](NC(=O)Nc2ccccc2)C1 [NCGC00400191-01] NO

Similarly, COc1ccc(-n2nc(C)c([C@@H]3C=C[C@@H](NCc4ccc(N(C)C)cc4)C3)c2C)cc1 [NCGC00394616-01] ? NO

###

Measured CC-v2 of individual entries
Target: Human ALDH3A1 (Homo sapiens, UniProt P30838)
Experiment: ALDH3A1 biochemical assay (benzaldehyde/NADP+, diaphorase-resazurin readout, 1,536-well)
Conditions: Table S4, biochemical curve class
Kindly provide the number alone.

Solved entries:
# smiles-record, measured-attribute, experimental-value
data = [
    ("Cc1cccc(CNC(=O)c2csc(N3CCN(c4ccc(C5(C#N)CCCC5)cc4)CC3)n2)c1", "CC-v2", -1.2),
    ("Cc1cccc(CNC(=O)c2csc(N3CCN(c4ncccc4C(F)(F)F)CC3)n2)c1", "CC-v2", -1.1),
    ("Cc1cccc(CNC(=O)c2csc(N3CCN(c4ccc(N5CCOCC5)cc4)CC3)n2)c1", "CC-v2", -1.2),
    ("Cc1cccc(CNC(=O)c2csc(N3CCN(c4ccc(Br)cc4)CC3)n2)c1", "CC-v2", -1.2),
]

For the molecule Cc1cccc(CNC(=O)c2csc(N3CCN(c4ccc(C(N)=O)cc4)CC3)n2)c1 , what CC-v2 is on record? -2.2

Also Cc1cccc(CNC(=O)c2csc(N3CCN(c4cccc([S+](C)(=O)[O-])c4)CC3)n2)c1 , if possible. -1.2

What do you have for COc1cc(N2CCN(c3nc(C(=O)NCc4cccc(C)c4)cs3)CC2)ccc1F ? -1.2

Entry to check: Cc1cccc(CNC(=O)c2csc(N3CCN(c4ccccc4C)CC3)n2)c1 -1.1

Consider next the molecule Cc1cccc(CNC(=O)c2csc(N3CCN(Cc4cccc(C)c4)CC3)n2)c1 in the same way. -1.1

Same thing, different molecule: Cc1cccc(CNC(=O)c2csc(N3CCN(c4ccc(Cl)cn4)CC3)n2)c1 -1.1

Same thing, different molecule: Cc1cccc(CNC(=O)c2csc(N3CCN(c4cc(F)cc(F)c4)CC3)n2)c1 -1.1

###

Listed here: items and their measured Cell_CC-v2.
Target: OE19 (3A1) (Homo sapiens, UniProt P30838)
Assay: Cellular ALDEFLUOR assay in OE19 cells (preferential ALDH3A1 expression)
Details: Table S4, cellular curve class
Form rule: numeric answer, no unit written next to it.

# smiles-record, Cell_CC-v2
data = [
    ("Cc1cccc(CNC(=O)c2csc(N3CCN(c4ccc(C5(C#N)CC5)cc4)CC3)n2)c1", -1.4),
]

Can you look up the measured Cell_CC-v2 of Cc1cccc(CNC(=O)c2csc(N3CCN(c4cccc(OC(F)(F)F)c4)CC3)n2)c1 for me? -1.1

Cc1cccc(CNC(=O)c2csc(N3CCN(Cc4cccc(C)c4)CC3)n2)c1 ? -2.1

Can you check Cc1cccc(CNC(=O)c2csc(N3CCN(c4cccc(C(F)(F)F)c4)CC3)n2)c1 next? -2.2
